test system: THP-1-HMGB1-Lucia cells; experiment: TBZ-induced necroptosis screening by HMGB1-luciferase release; format: cell-based, human; conditions: Homo sapiens; 20 μM compound with TBZ, 8 h; TBZ alone = 100, DPBS = 0; read-out: % Inhibition (luciferase activity relative to TBZ-treated supernatant)
Where a name gives a salt, the structure may show the parent alone.
measure name: activity at 20 µM (%)

molecule	measure name	reported value
O=C(O)Cc1cccc(OCCCN(Cc2cccc(C(F)(F)F)c2Cl)CC(c2ccccc2)c2ccccc2)c1 [S40, GW3965]	activity at 20 µM	11.6
CO[C@H]1C[C@@H]2CC[C@@H](C)[C@@](O)(O2)C(=O)C(=O)N2CCCC[C@H]2C(=O)O[C@H]([C@H](C)C[C@@H]2CC[C@@H](O)[C@H](OC)C2)CC(=O)[C@H](C)/C=C(\C)[C@@H](O)[C@@H](OC)C(=O)[C@H](C)C[C@H](C)/C=C/C=C/C=C/1C [S56, Sirolimus]	activity at 20 µM	0.3
CCCS(=O)(=O)Nc1ccc(F)c(C(=O)c2c[nH]c3ncc(-c4ccc(Cl)cc4)cc23)c1F [S30, Vemurafenib]	activity at 20 µM	6.4
COc1cc2nccc(Oc3ccc(NC(=O)Nc4cc(C)on4)c(Cl)c3)c2cc1OC [S46, Tivozanib]	activity at 20 µM	9
CO[C@H]1C[C@@H]2CC[C@@H](C)[C@@](O)(O2)C(=O)C(=O)N2CCCC[C@H]2C(=O)O[C@H]([C@H](C)C[C@@H]2CC[C@@H](OC(=O)C(C)(CO)CO)[C@H](OC)C2)CC(=O)[C@H](C)/C=C(\C)[C@@H](O)[C@@H](OC)C(=O)[C@H](C)C[C@H](C)/C=C/C=C/C=C/1C [S9, Temsirolimus]	activity at 20 µM	19
Cc1cc(SCc2sc(-c3ccc(C(F)(F)F)cc3)nc2C)ccc1OCC(=O)O [S41, GW 501516]	activity at 20 µM	9.1
CC(=O)[C@@]1(O)CC[C@H]2[C@@H]3CCC4=CC(=O)CCC4=C3[C@@H](c3ccc(N(C)C)cc3)C[C@@]21C [S24, Ulipristal]	activity at 20 µM	14
O=S(=O)(c1cccc2cnccc12)N1CCCNCC1 [S68, Fasudil hydrochloride]	activity at 20 µM	6
CC1(C)CC[C@]2(C(=O)O)CC[C@]3(C)[C@H](C(=O)C=C4[C@@]5(C)C=C(C#N)C(=O)C(C)(C)[C@@H]5CC[C@]43C)[C@@H]2C1 [S16, Bardoxolone]	activity at 20 µM	0
Cc1ccc(F)c(NC(=O)Nc2ccc(-c3cccc4[nH]nc(N)c34)cc2)c1 [S20, Linifanib]	activity at 20 µM	0
C=C1C(=O)O[C@H]2[C@H]1CC/C(C)=C/CC[C@@]1(C)O[C@@H]21 [S38, Parthenolide]	activity at 20 µM	0
C#C[C@]1(O)CC[C@H]2[C@@H]3CCc4cc(OC5CCCC5)ccc4[C@H]3CC[C@@]21C [S54, Quinestrol]	activity at 20 µM	8.2
CC[C@@]1(O)C(=O)OCc2c1cc1n(c2=O)Cc2cc3c(CN(C)C)c(O)ccc3nc2-1 [S65, Topotecan hydrochloride]	activity at 20 µM	5.2
COc1cccc2c1C(=O)c1c(O)c3c(c(O)c1C2=O)C[C@@](O)(C(=O)CO)C[C@@H]3O[C@H]1C[C@H](N)[C@H](O[C@@H]2CCCCO2)[C@H](C)O1 [S57, Pirarubicin]	activity at 20 µM	6.4
CN1CCN(c2nc(C3=C(c4c[nH]c5ccccc45)C(=O)NC3=O)c3ccccc3n2)CC1 [S22, Sotrastaurin]	activity at 20 µM	4.7
O=C(N[C@H](CO)[C@H](O)c1ccc([N+](=O)[O-])cc1)C(Cl)Cl [S69, Chloramphenicol]	activity at 20 µM	0
O=C(Nc1ccc(Br)cc1)c1cccc(S(=O)(=O)Nc2ccc(Br)cc2)c1 [S19]	activity at 20 µM	5.3
CC[C@H]1CN2CCc3cc(OC)c(OC)cc3[C@@H]2C[C@@H]1C[C@H]1NCCc2cc(OC)c(OC)cc21 [S13, Emetine dihydrochloride]	activity at 20 µM	3.3
